The origin of these recorded values is patent US7244738B2.

Where a name gives a salt, the structure may show the parent alone.
Provide the reported melting point of each item.

> print(dat)
                                   compound         data.value
1  COc1cc2[nH]c(N(C)Cc3cccc(OCCN(C)C)c3)nc(=O)c2c(C)c1OC [Example 164]  137.9 to 141.9 °C

Please state, for each entry, its recorded melting point.
1. COCC(O)COc1ccc(CN(C)c2nc(=O)c3c(OC)c(OC)c(OC)cc3[nH]2)cc1 (stereo not drawn) [Example 2]
2. CN/C(C)=N/c1cccc(CN(C)c2nc(=O)c3c(C)c(OC)c(OC)cc3[nH]2)c1 [Example 195]
3. COc1cc2[nH]c(N(C)Cc3cccc(C#N)c3)nc(=O)c2c(C)c1OC (as salt: TFA) [Example 96]

["108.1 to 111.5 °C", "233.1 to 233.9 °C", "279.9 to 281.5 °C"]

Please state, for each entry, its recorded melting point.
1. COc1ccc(CN(C)c2nc(=O)c3c(C)c(OC)c(OC)cc3[nH]2)cc1OCCN(C)CCO [Example 16]
2. COCC(=O)N(C)Cc1cccc(CN(C)c2nc(=O)c3c(OC)c(OC)c(OC)cc3[nH]2)c1 [Example 120]

1. 144.8 to 146.2 °C
2. 115 to 117 °C

###

Structures can show the parent of a compound that is named as a salt.
Provide the reported melting point of each item.

Recorded melting point, per entry:
> print(dat)
                                   compound    result.type         data.value
1  COc1cc2[nH]c(N(C)Cc3cccc(NS(C)(=O)=O)c3)nc(=O)c2c(C(C)C)c1OC  melting point      215 to 217 °C
2  COc1cc2c(=O)nc(N(C)Cc3cccc(/N=C(\C)N(C)C)c3)[nH]c2cc1Cl  melting point  185.4 to 191.9 °C
3  COc1cc2[nH]c(N(C)Cc3cccc(-n4cccn4)c3)nc(=O)c2c(C)c1OC  melting point  220.8 to 224.1 °C
4  COc1cc2[nH]c(N(C)Cc3cccc(CN4CCC(O)C4)c3)nc(=O)c2c(OC)c1OC (stereo not drawn)  melting point  174.3 to 176.4 °C
5  CCN(C)CCOc1ccc(CN(C)c2nc(=O)c3c(C)c(OC)c(OC)cc3[nH]2)cc1OC  melting point  158.1 to 159.2 °C

Now for a further compound.
For the compound COc1cc2[nH]c(N(C)Cc3ccccc3N)nc(=O)c2c(OC)c1OC (as salt: HCl) , what melting point is on record?
> 300 °C (dec.)

###

Provide the reported melting point of each item.
Structures can show the parent of a compound that is named as a salt.

Recorded melting point, per entry:
> print(dat)
                                   compound         data.value
1  COC(=O)N(C)C(C)c1cccc(CN(C)c2nc(=O)c3c(C)c(OC)c(OC)cc3[nH]2)c1 (stereo not shown) [Example 5]  117.9 to 120.1 °C
2  COc1cc2[nH]c(N(C)Cc3cccc(CN(C)CCO)c3)nc(=O)c2c(OC)c1OC (as salt: HCl) [Example 116]    169 to 171.9 °C
3  COCCOC(=O)N(C)Cc1cccc(CN(C)c2nc(=O)c3c(C)c(OC)c(OC)cc3[nH]2)c1 [Example 294]  145.8 to 146.9 °C
4  COc1cc2[nH]c(N(C)Cc3ccc(CN(C)S(C)(=O)=O)cc3)nc(=O)c2c(OC)c1OC [Example 21]    148.8 to 151 °C
5  COCCNS(=O)(=O)c1cccc(CN(C)c2nc(=O)c3c(OC)c(OC)c(OC)cc3[nH]2)c1 [Example 132]  176.9 to 179.1 °C

Please state, for each entry, its recorded melting point.
1. COc1cc2[nH]c(N(C)Cc3cccc(N4C(=O)CCC4=O)c3)nc(=O)c2c(OC)c1OC [Example 260]
2. COc1cc2[nH]c(N(C)Cc3cccc(N=C4NCCN4)c3)nc(=O)c2c(C)c1OC [Example G-38]
3. COc1cc2[nH]c(N(C)Cc3ccc4c(c3)CN(C)C4)nc(=O)c2c(OC)c1OC [Example 45]
4. CCC1CCN(c2cccc(CN(C)c3nc(=O)c4c(C)c(OC)c(OC)cc4[nH]3)c2)C1=O (stereo not shown) [Example 257]
5. COc1cc2[nH]c(N(C)Cc3cccc(C(C)N4CCCC4)n3)nc(=O)c2c(C)c1OC (stereo not shown) [Example 275]
6. CCNCc1cccc(CN(C)c2nc(=O)c3c(OC)c(OC)c(OC)cc3[nH]2)c1 [Example 43]
7. COCCN1Cc2ccc(CN(C)c3nc(=O)c4c(OC)c(OC)c(OC)cc4[nH]3)cc2C1 [Example 18]

["125.5 to 128.5 °C", "141.3 to 144.7 °C", "165.5 to 166.5 °C", "200.1 to 202.1 °C", "75.4 to 85.6 °C", "133.9 to 134.7 °C", "133.3 to 136.6 °C"]

For the compound COc1cc2[nH]c(N(C)Cc3ccc(CN(C)S(C)(=O)=O)cc3)nc(=O)c2c(C)c1OC [Example 10] , what melting point is on record?
238 to 240 °C
